Target: Keap1 (A321-C624) (h) (Homo sapiens)
Construct: His-Thromb-KEAP1(A321-C624) acquired from Novalix (batch PU-P01) was immobilized covalently by amine coupling; His tag (N); thrombin cleavage site (Thromb) (N)
Test: Surface Plasmon Resonance binding assay to Kelch domain of KEAP1
Conditions: Biacore T200, 25° C., immobilized His-Thromb-KEAP1(A321-C624), single cycle kinetics, KD=kd/ka from 1:1 fit; read-out: Keap1 (A321-C624) (h) direct/SPR (KD)
Give Kd for every item shown.
Give bare numbers, in nM.

>>> quantitative_readout("Cc1ccc2cc1CN1Cc3cc(ccc3OS1(=O)=O)OCCN(c1ccccc1)CCn1nnc3c(C)c(ccc31)C2CC(=O)O (single isomer, unassigned) [Example 58b]")
12.5
>>> quantitative_readout("COc1ccc2cc1[C@@H](C)N1Cc3cc(ccc3OS1(=O)=O)OCCCCCCn1nnc3c(C)c(ccc31)[C@H]2CC(=O)O [Example 40a]")
5.51
>>> quantitative_readout("COc1cc2cc3c1OS(=O)(=O)N(Cc1cc(ccc1C)C(CC(=O)O)c1ccc4c(nnn4CCCCO2)c1C)C3 (single isomer, unassigned) [Example 16b]")
1.73

Provide Kd values for the following items, in order.
1. [2H]C([2H])(C(=O)O)[C@@H]1c2ccc(C)c(c2)CN2Cc3cc(ccc3OS2(=O)=O)OCCCCn2nnc3c(C)c1ccc32 [Example 55a]
2. Cc1ccc2cc1CN1Cc3cc(ccc3OS1(=O)=O)OC[C@H](C)CCn1nnc3c(C)c(ccc31)C2CC(=O)O (single isomer, unassigned) [Example 45a]
3. Cc1ccc2cc1CN1Cc3c(ccc(c3Cl)OCCCCn3nnc4c(C)c(ccc43)C2CC(=O)O)OS1(=O)=O (single isomer, unassigned) [Example 66a]
4. Cc1ccc2cc1CN1Cc3cc(ccc3OS1(=O)=O)OCCN(c1ccccc1)CCn1nnc3c(C)c(ccc31)C2CC(=O)O (single isomer, unassigned) [Example 58a]
5. Cc1ccc2cc1CN1Cc3cc(ccc3N(C)S1(=O)=O)OCCCCn1nnc3c(C)c(ccc31)C2CC(=O)O (single isomer, unassigned) [Example 39b]
6. COc1ccc2cc1CN1Cc3cc(ccc3OS1(=O)=O)OCc1ccccc1OCCCCn1nnc3c(C)c(ccc31)C2CC(=O)O (single isomer, unassigned) [Example 53a]
7. Cc1c(Cl)cc2cc1CN1Cc3cc(ccc3OS1(=O)=O)OCCCCn1nnc3c(C)c(ccc31)C2CC(=O)O (single isomer, unassigned) [Example 33a]

2
0.594
0.678
4.66
0.685
47.7
4.55

Need Kd for each of these compounds.
1. COc1cc2cc(c1Cl)CN1Cc3cc(ccc3OS1(=O)=O)OCCCCn1nnc3c(C)c(ccc31)C2CC(=O)O (single isomer, unassigned) [Example 38b]
2. Cc1ccc2cc1CN1Cc3cc(c(F)cc3OS1(=O)=O)OCCCCn1nnc3c(C)c(ccc31)C2CC(=O)O (single isomer, unassigned) [Example 32b]

1: 604; 2: 2.02

====

Target: Keap1 (A321-C624) (h) (Homo sapiens, UniProt Q14145)
Construct: His-Thromb-KEAP1(A321-C624) acquired from Novalix (batch PU-P01) was immobilized covalently by amine coupling; His tag (N); thrombin cleavage site (Thromb) (N)
Sequence (Q14145 321-624): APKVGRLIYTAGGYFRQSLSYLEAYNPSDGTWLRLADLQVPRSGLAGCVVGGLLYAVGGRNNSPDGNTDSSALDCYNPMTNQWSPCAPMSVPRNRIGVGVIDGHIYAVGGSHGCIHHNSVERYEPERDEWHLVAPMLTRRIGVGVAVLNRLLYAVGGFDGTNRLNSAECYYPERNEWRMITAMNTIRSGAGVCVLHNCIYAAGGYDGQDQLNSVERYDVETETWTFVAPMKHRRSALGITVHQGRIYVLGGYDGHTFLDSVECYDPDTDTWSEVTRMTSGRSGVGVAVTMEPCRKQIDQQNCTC
Assay: Surface Plasmon Resonance binding assay to Kelch domain of KEAP1
Conditions: Biacore T200, 25° C., immobilized His-Thromb-KEAP1(A321-C624), single cycle kinetics, KD=kd/ka from 1:1 fit; read-out: Keap1 (A321-C624) (h) direct/SPR (KD)
Description: EXAMPLE 85: SURFACE PLASMON RESONANCE Binding assay to Kelch domain of KEAP1 was performed by Surface Plasmon Resonance (SPR) on a Biacore T200 (GE Healthcare) at 25° C. using CM5 chip. […] Binding of analyte to the ligand was monitored in real time with associations of 180 seconds and a dissociation of 720 seconds. […] The equilibrium constant (KD=kd/ka) was calculated from these fitted parameters. […]
observable: Kd (nM)
Answers are plain numbers, in nM.

Would you please look over these solved cases?
>>> quantitative_readout("Cc1ccc2cc1CN1Cc3cc(ccc3OS1(=O)=O)OCCCCn1cc(nn1)C(=O)NC2CC(=O)O (single isomer, unassigned) [Example 72a]")
23.6
>>> quantitative_readout("COCCC1CCOc2ccc3c(c2)CN([C@H](C)c2cc(ccc2C)[C@@H](CC(=O)O)c2ccc4c(nnn4C1)c2C)S(=O)(=O)O3 (single isomer, unassigned) [Example 24c]")
5

Quick request: Kd for each listed item, please.
1. Cc1ccc2cc1[C@@H](C)N1Cc3cc(ccc3OS1(=O)=O)OCCOCCCn1nnc3c(C)c(ccc31)[C@H]2CC(=O)O [Example 26a]
2. COc1ccc2cc1CN1Cc3cc(ccc3OS1(=O)=O)OCc1ccccc1OCCCCn1nnc3c(C)c(ccc31)C2CC(=O)O (single isomer, unassigned) [Example 53b]
3. Cc1cc2cc(c1Cl)CN1Cc3cc(ccc3OS1(=O)=O)OCCCCn1nnc3c(C)c(ccc31)C2CC(=O)O (single isomer, unassigned) [Example 36a]
4. COc1cc2cc3c1OS(=O)(=O)N(Cc1cc(ccc1C)C(CC(=O)O)c1ccc4c(nnn4CCCCO2)c1C)C3 (single isomer, unassigned) [Example 16a]

1: 3.4; 2: 176; 3: 9.02; 4: 4.03

Provide reported Kd for each item, in the same order as listed.
1. COc1ccc2cc1[C@@H](C)N1Cc3cc(ccc3OS1(=O)=O)OCCCCn1nnc3c(C)c(ccc31)[C@@H]2CC(=O)O [Example 28a]
2. Cc1cc2cc(c1)C(CC(=O)O)c1ccc3c(nnn3CCCCOc3ccc4c(c3)CN(C2)S(=O)(=O)O4)c1C (stereo not drawn)

23.4
131

====

Biological target: Keap1 (A321-C624) (h) (Homo sapiens, UniProt Q14145)
Construct: His-Thromb-KEAP1(A321-C624) acquired from Novalix (batch PU-P01) was immobilized covalently by amine coupling; His tag (N); thrombin cleavage site (Thromb) (N)
Assay: Surface Plasmon Resonance binding assay to Kelch domain of KEAP1
Settings: Biacore T200, 25° C., immobilized His-Thromb-KEAP1(A321-C624), single cycle kinetics, KD=kd/ka from 1:1 fit; read-out: Keap1 (A321-C624) (h) direct/SPR (KD)
Assign log10(Kd) to each entry below.
In plain terms, each number is the log10 of measured Kd in nM.

These solved cases illustrate the format of a correct answer.
>>> quantitative_readout("Cc1ccc2cc1CN1Cc3cc(ccc3OS1(=O)=O)OCCCCn1nnc3c(C)c(ccc31)[C@@H]2CC(=O)O [Example 7b]")
0.69
>>> quantitative_readout("Cc1ccc2cc1CN1Cc3cc(ccc3OS1(=O)=O)OCCCCCOc1cc(c(C)c3nnn(C)c13)C2CC(=O)O (single isomer, unassigned) [Example 73b]")
1.25
>>> quantitative_readout("Cc1ccc2cc1CN1Cc3cc(ccc3OS1(=O)=O)OCCCCCn1nnc3c(C)c(ccc31)C2CC(=O)O (single isomer, unassigned) [Example 1a]")
-0.74
>>> quantitative_readout("Cc1ccc2cc1CN1Cc3c(ccc(c3Cl)OCCCCn3nnc4c(C)c(cc(Cl)c43)[C@@H]2CC(=O)O)OS1(=O)=O [Example 51]")
0.31
>>> quantitative_readout("Cc1ccc2cc1CN1Cc3cc(ccc3OS1(=O)=O)N(C)CCCCn1nnc3c(C)c(ccc31)C2CC(=O)O (stereo not drawn) [Example 42]")
0.20

For the next question, use this compound.
// query log10(Kd) value for entry Cc1ccc2cc1CN1Cc3cc(ccc3OS1(=O)=O)OCCCCn1cc(nn1)C(=O)NC2CC(=O)O (single isomer, unassigned) [Example 72b] 2.86

====

Provide the recorded log10 Kd for the entries that follow.
Target: Keap1 (A321-C624) (h) (Homo sapiens)
Construct: His-Thromb-KEAP1(A321-C624) acquired from Novalix (batch PU-P01) was immobilized covalently by amine coupling; His tag (N); thrombin cleavage site (Thromb) (N)
Experiment: Surface Plasmon Resonance binding assay to Kelch domain of KEAP1
Settings: Biacore T200, 25° C., immobilized His-Thromb-KEAP1(A321-C624), single cycle kinetics, KD=kd/ka from 1:1 fit; read-out: Keap1 (A321-C624) (h) direct/SPR (KD)
Please note: log10 values; quantity Kd; unit nM.

Guide cases for log10 Kd, answers given:
>>> quantitative_readout("Cc1c2ccc3c1nnn3CCCCOc1ccc3c(c1)CN(Cc1cc(ccc1F)C2CC(=O)O)S(=O)(=O)O3 (stereo not drawn)")
1.15
>>> quantitative_readout("Cc1c2ccc3c1nnn3CCCCOc1ccc3c(c1)CN(Cc1cc(F)cc(c1)C2CC(=O)O)S(=O)(=O)O3 (stereo not drawn)")
2.41

// for each molecule below, give its log10 Kd
1. Cc1c2ccc3c1nnn3CCCCOc1ccc3c(c1)CN(Cc1cc(cc(C(F)(F)F)c1)C2CC(=O)O)S(=O)(=O)O3 (single isomer, unassigned) [Example 12a]
2. Cc1ccc2cc1CN1Cc3cc(ccc3OS1(=O)=O)OC[C@H](O)CCn1nnc3c(C)c(ccc31)C2CC(=O)O (stereo partly drawn)
3. COCCC1CCOc2ccc3c(c2)CN([C@H](C)c2cc(ccc2C)[C@H](CC(=O)O)c2ccc4c(nnn4C1)c2C)S(=O)(=O)O3 (single isomer, unassigned) [Example 24a]

[3.49, -0.84, 0.04]

What value of log10 Kd has been recorded for this entry: COc1c(Cl)cc2cc1CN1Cc3cc(ccc3OS1(=O)=O)OCCCCn1nnc3c(C)c(ccc31)C2CC(=O)O (single isomer, unassigned) [Example 37b] 2.72
